# ASSAYED_TARGET: apo-transferrin (iron-unbound transferrin) (human, UniProt P02787 20-698)
# PROTOCOL_NOTES: SPR
PROPERTY_MEASURED: Kd (nM)
Answers are plain numbers, in nM.

{"BINDER": "RRNHSCEPCQTLAVRSYR [FX18]", "Kd [nM]": 143}

Continue with the binder presented below.
Which Kd value belongs to RIGKHSRTRYERNIEK [TH16] ?
97
